The values you see were collected from PubChem BioAssay (Tox21).

Experiment: qHTS assay to identify small molecule agonists of the estrogen receptor beta (ER-beta) signaling pathway - cell viability counter screen (AID 1259380); note: nearly all actives have a fitted effect of over 30% in size
Details: ER-beta-bla HEK293T viability, CellTiter-Glo luminescence, 16 h; series mostly up to 92.4 µM
Records with an inconclusive call do not appear. Active and inactive are the calls of the source. Calls come from the whole dose curve; as a rule, active = well fitted cell-killing curve with a large enough effect in the repeat runs; inconclusive = weak or mixed curves, or effect the other way; inactive = flat fitted curve, though single readings scatter.
// classify into yes (1) for active, no (0) for inactive

Recorded results for 4 compounds are shown here.
compound: c1ccc(COCc2ccccc2)cc1
class: no (0)
--
compound: Cc1ccccc1N1C(=O)c2cc(S(N)(=O)=O)c(Cl)cc2NC1C (stereo not drawn)
class: no (0)
--
compound: Nc1ccc(S(=O)(=O)O)cc1
class: no (0)
--
compound: CC(=O)[C@H]1CC[C@H]2[C@@H]3C[C@H](C)C4=CC(=O)CC[C@]4(C)[C@H]3[C@@H](O)C[C@]12C
class: no (0)

Now look at this entry.
## Input What classification did `O=C(O)Cc1ccc(-c2ccccc2)cc1` end up with in this test?
## Output no (0)

====

Assay: qHTS assay to identify small molecule antagonists of the sonic hedgehog signaling (Shh) pathway (AID 1259369); note: nearly all actives have a fitted effect of over 45% in size
Conditions: NIH/3T3 Gli1-Luc reporter, Shh antagonist, luminescence 24 h; series mostly up to 92.4 µM
Records with an inconclusive call do not appear. The source made the active and inactive calls. Calls follow the shape of the full dose curve.
// classify into class 1 for active, class 0 for inactive

Recorded results for 5 compounds are shown here.
compound: C1COCO1
class: class 0
--
compound: O=C(O)Cc1ccc(-c2ccccc2)cc1
class: class 0
--
compound: CC#N
class: class 0
--
compound: COc1ccc(CCC(=O)c2c(O)cc(O[C@@H]3O[C@H](CO)[C@@H](O)[C@H](O)[C@H]3O[C@@H]3O[C@@H](C)[C@H](O)[C@@H](O)[C@H]3O)cc2O)cc1O
class: class 0
--
compound: COC(OC)(C(=O)c1ccccc1)c1ccccc1
class: class 0

## Input What classification did CCC(C)(O)CCC=C(C)C (configuration not stated) end up with in this test?
## Output class 0

## Input What classification did CC(N)CN (configuration not stated) end up with in this test?
## Output class 0

## Input What classification did `CN(C)C(=O)Nc1ccc(Oc2ccc(Cl)cc2)cc1` end up with in this test?
## Output class 0

## Input What classification did `CSc1ccc(Oc2ccc(S(N)(=O)=O)cc2CN(C)C)cc1C` end up with in this test?
## Output class 1

## Input What classification did `CCOC(=O)OCC` end up with in this test?
## Output class 0

## Input What classification did `c1cc[c]([Bi]([c]2ccccc2)[c]2ccccc2)cc1` end up with in this test?
## Output class 1

## Input What classification did `NC(=O)Cn1c(=O)cc(CCN2CCN(c3nccc4sccc34)CC2)c2ccc(F)cc21` end up with in this test?
## Output class 1

====

Molecular target: Aryl hydrocarbon receptor (Homo sapiens) (UniProt P35869)
Sequence (P35869 whole entry, looked up): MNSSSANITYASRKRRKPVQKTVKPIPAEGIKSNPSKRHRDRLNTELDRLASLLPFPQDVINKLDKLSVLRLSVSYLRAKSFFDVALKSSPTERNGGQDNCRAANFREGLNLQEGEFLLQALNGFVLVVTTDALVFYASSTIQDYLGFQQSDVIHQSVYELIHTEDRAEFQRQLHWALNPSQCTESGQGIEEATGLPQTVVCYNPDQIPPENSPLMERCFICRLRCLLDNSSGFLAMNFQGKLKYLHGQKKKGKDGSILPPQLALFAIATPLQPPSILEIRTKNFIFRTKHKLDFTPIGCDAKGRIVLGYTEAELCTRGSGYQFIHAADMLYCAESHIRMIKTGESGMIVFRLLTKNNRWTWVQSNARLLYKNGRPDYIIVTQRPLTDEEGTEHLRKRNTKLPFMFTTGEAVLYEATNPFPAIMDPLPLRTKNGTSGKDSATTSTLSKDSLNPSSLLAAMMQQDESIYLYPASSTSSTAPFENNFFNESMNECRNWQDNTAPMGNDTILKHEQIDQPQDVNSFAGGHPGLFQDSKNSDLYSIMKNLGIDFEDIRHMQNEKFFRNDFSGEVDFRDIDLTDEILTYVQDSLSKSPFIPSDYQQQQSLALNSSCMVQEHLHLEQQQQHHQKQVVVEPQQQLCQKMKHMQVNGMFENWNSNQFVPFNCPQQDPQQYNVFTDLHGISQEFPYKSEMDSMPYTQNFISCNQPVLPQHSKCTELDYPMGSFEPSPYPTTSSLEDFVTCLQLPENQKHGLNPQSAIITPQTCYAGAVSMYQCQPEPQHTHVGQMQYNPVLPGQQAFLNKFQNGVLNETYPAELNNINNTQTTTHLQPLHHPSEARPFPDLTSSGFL
Assay: qHTS assay to identify small molecule that activate the aryl hydrocarbon receptor (AhR) signaling pathway (AID 743085);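 note: HG2L7.5c1 human HepG2 liver cells with stably integrated DRE-driven firefly reporter; nearly all actives have a fitted effect of over 15% in size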
Conditions: HepG2 AhR-luc (HG2L7.5c1), luciferase, 24 h; series mostly up to 70.3 µM
Results filed as inconclusive are left out. Calls of active or inactive are those of the source. Calls follow the shape of the dose curve; as a rule, active = well fitted activation curve with a large enough effect in the repeat runs; inconclusive = weak or mixed curves; inactive = no such curve, though single readings can be large or run the other way.
// classify into yes = active, no = inactive

compound: CC1=C(C=O)C(C)(C)CCC1
class: no

compound: O=[N+]([O-])c1cccc(S(=O)(=O)NCCNS(=O)(=O)c2cccc([N+](=O)[O-])c2)c1
class: no

compound: CCC(C)(C)C1CCC(O)CC1 (stereo not given)
class: no

Now look at this entry.
## Input What classification did `ON(Cc1ccccc1)Cc1ccccc1` end up with in this test?
## Output no

====

Assay: qHTS assay for identifying genotoxic compounds that show differential cytotoxicity against isogenic chicken DT40 cell lines with known DNA damage response pathways - Rad54/Ku70 mutant cell line (AID 743015); note: nearly all actives have a fitted effect of over 60% in size; note: potency is the fitted concentration of half-maximal effect
Conditions: DT40 Rad54/Ku70 mutant viability, CellTiter-Glo, 40 h; series mostly up to 66.8 µM
Inconclusive results are not listed. The source made the active and inactive calls. Calls come from the whole dose curve; as a rule, active = well fitted cell-killing curve with a large enough effect in the repeat runs; inconclusive = weak or mixed curves; inactive = no such curve, though single readings can be large or run the other way.
quantity: Potency

Illustrative cases are given below, each with its answer.
compound: O=C(NCCCN1CCOCC1)c1ccc(Cl)cc1
quantity: Potency
result: inactive
--
compound: Cc1c(C(=O)NN2CCCCC2)nn(-c2ccc(Cl)cc2Cl)c1-c1ccc(Cl)cc1
quantity: Potency
result: 11.9 µM (active)
--
compound: Nc1ccc(S(=O)(=O)O)cc1
quantity: Potency
result: inactive
--
compound: c1cnc2c(n1)CCCC2
quantity: Potency
result: inactive
--
compound: CC#N
quantity: Potency
result: inactive
--
compound: CC(C)(CCl)c1ccccc1
quantity: Potency
result: inactive

Required: Potency, one value per compound below.
1. C[C@]12CCC(=O)C=C1C=C[C@@H]1[C@@H]2CC[C@@]2(C)[C@H]1CC[C@@]21CCC(=O)O1
2. CC1(C)O[C@@H]2C[C@H]3[C@@H]4CCC5=CC(=O)C=C[C@]5(C)[C@H]4[C@@H](O)C[C@]3(C)[C@]2(C(=O)CO)O1
3. CCCOC(=O)c1ccc(C(=O)OCCC)nc1
4. NC(=O)N(O)[C@@H]1C=C[C@H](Oc2cccc(Oc3ccc(F)cc3)c2)C1
5. CCC(Cc1ccccc1)(C(=O)c1ccc(N2CCOCC2)cc1)N(C)C (stereo not given)
6. CC(C)CCCC(=O)O

## Output
1: 26.6 µM (active); 2: inactive; 3: inactive; 4: 54.5 µM (active); 5: 9.69 µM (active); 6: inactive

Required: Potency, one value per compound below.
1. CCNC(=O)N1CCN(CCCC(c2ccc(F)cc2)c2ccc(F)cc2)CC1
2. CCCCCCOC(=O)C(C)C
3. CCCC(=O)O[C@]1(C(=O)COC(=O)CC)CC[C@H]2[C@@H]3CCC4=CC(=O)CC[C@]4(C)[C@H]3[C@@H](O)C[C@@]21C

## Output
1: 6.68 µM (active); 2: inactive; 3: inactive

====

Experiment: qHTS assay to identify small molecule agonists of the androgen receptor (AR) signaling pathway in the presence of an antagonist - cell viability counter screen (AID 1259379); note: nearly all actives have a fitted effect of over 25% in size
Conditions: MDA-kb2 viability, CellTiter-Fluor, 16 h; series mostly up to 92.4 µM
Inconclusive results are not listed. Active and inactive are the calls of the source. Calls come from the whole dose curve; as a rule, active = well fitted cell-killing curve with a large enough effect in the repeat runs; inconclusive = weak or mixed curves, or effect the other way; inactive = flat fitted curve, though single readings scatter.
// classify into label 1 = active, label 0 = inactive

compound: CCCCC(CC)COC(=O)COc1ccc(Cl)cc1C (centres undefined)
class: label 0
//
compound: CNC(=S)NC
class: label 0
//
compound: CCOC(=O)C(C)Oc1ccc(Oc2nc3ccc(Cl)cc3o2)cc1 (centres undefined)
class: label 0
//
compound: CCc1cccc(N(C)C(N)=Nc2cccc3ccccc23)c1
class: label 0
//
compound: CCCOC(=O)c1ccc(N)cc1
class: label 0
//
compound: C[C@@H]1C[C@H]2[C@@H]3CCC4=CC(=O)C=C[C@]4(C)[C@@]3(F)[C@@H](O)C[C@]2(C)[C@@]1(O)C(=O)CO
class: label 0
//
compound: CC(C)(O)c1ccccc1CC[C@@H](SCC1(CC(=O)O)CC1)c1cccc(/C=C/c2ccc3ccc(Cl)cc3n2)c1
class: label 0
//
compound: CC(N)CN (centres undefined)
class: label 0

## Input What classification did `CC(=O)Oc1ccc2c(c1)CC[C@@H]1[C@@H]2CC[C@]2(C)[C@@H](O)CC[C@@H]12` end up with in this test?
## Output label 0

## Input What classification did `CCNC(=O)N1CCN(CCCC(c2ccc(F)cc2)c2ccc(F)cc2)CC1` end up with in this test?
## Output label 1

## Input What classification did `Nc1nccs1` end up with in this test?
## Output label 0

## Input What classification did `COC(OC)(C(=O)c1ccccc1)c1ccccc1` end up with in this test?
## Output label 0

## Input What classification did `C/C=C/C=C/CCCCCCCO` end up with in this test?
## Output label 0

## Input What classification did `C=CC(=O)NCOCC(C)C` end up with in this test?
## Output label 0

## Input What classification did `CC(C)(CCl)c1ccccc1` end up with in this test?
## Output label 0

## Input What classification did `COc1ccc(C(=O)c2cccc(O)c2)c(OC)c1` end up with in this test?
## Output label 0

## Input What classification did `Cc1ccnc2ccccc12` end up with in this test?
## Output label 0

====

Test: qHTS assay to identify small molecule antagonists of the thyroid receptor (TR) signaling pathway (AID 743065); note: nearly all actives have a fitted effect of over 55% in size
Settings: GH3.TRE-Luc, T3-stimulated luciferase inhibition, 23.5 h; series mostly up to 70.3 µM
Results filed as inconclusive are left out. Active and inactive are the calls of the source. Calls follow the shape of the dose curve; as a rule, active = well fitted inhibition curve with a large enough effect in the repeat runs; inconclusive = weak or mixed curves; inactive = no such curve, though single readings can be large or run the other way.
// classify into active, inactive

Recorded results for 3 compounds are shown here.
compound: Brc1cc(-c2ccc(Br)c(Br)c2Br)cc(Br)c1Br
class: active
--
compound: CCC1(C)CC(=O)NC1=O (centres undefined)
class: inactive
--
compound: C1COCO1
class: inactive

## Input What classification did `CCOC(=N)CC(=O)OCC` end up with in this test?
## Output inactive

## Input What classification did `CCc1c2c(nc3ccc(OC(=O)N4CCC(N5CCCCC5)CC4)cc13)-c1cc3c(c(=O)n1C2)COC(=O)[C@]3(O)CC` end up with in this test?
## Output active

## Input What classification did `CCCOC(=O)c1ccc(C(=O)OCCC)nc1` end up with in this test?
## Output inactive

## Input What classification did `Cc1occc1C(=O)Nc1ccc(C(=O)N2CCC(F)(F)/C(=C\C(=O)N3CCC(N4CCCCC4)CC3)c3ccccc32)cc1` end up with in this test?
## Output active
